target: Carboxypeptidase G2 (Pseudomonas aeruginosa (strain ATCC 15692 / DSM 22644 / CIP 104116 / JCM 14847 / LMG 12228 / 1C / PRS 101 / PAO1)); test: Inhibitory activity against bacterial carboxypeptidase G2 by Dixon plot assay
Sequence (Q9I056 whole entry): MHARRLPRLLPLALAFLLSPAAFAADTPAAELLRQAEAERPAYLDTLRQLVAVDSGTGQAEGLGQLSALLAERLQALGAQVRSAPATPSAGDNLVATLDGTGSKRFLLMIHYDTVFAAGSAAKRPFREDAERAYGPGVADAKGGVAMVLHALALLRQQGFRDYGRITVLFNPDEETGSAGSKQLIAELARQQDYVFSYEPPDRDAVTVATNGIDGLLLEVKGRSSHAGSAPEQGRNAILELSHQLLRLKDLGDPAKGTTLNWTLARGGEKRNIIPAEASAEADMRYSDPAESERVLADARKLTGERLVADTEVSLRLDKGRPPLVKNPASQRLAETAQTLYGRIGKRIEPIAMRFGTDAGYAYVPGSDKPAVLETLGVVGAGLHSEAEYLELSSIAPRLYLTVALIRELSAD
Rule: Ki below 2000 nM gives label 1, anything at or above gives label 0.

[[record]]
molecule = "Nc1cccc(SC(=O)NC(CCC(=O)O)C(=O)O)c1 (stereo unspecified)"
category = "label 0"

[[record]]
molecule = "Nc1ccc(SC(=O)NC(CCC(=O)O)C(=O)O)cc1 (stereo unspecified)"
category = "label 0"

[[record]]
molecule = "COc1cccc(SC(=O)NC(CCC(=O)O)C(=O)O)c1 (stereo unspecified)"
category = "label 1"

[[record]]
molecule = "COc1ccc(SC(=O)N[C@H](CCC(=O)O)C(=O)O)cc1"
category = "label 1"

[[record]]
molecule = "O=C(O)CCC(NC(=O)Sc1cc[n+]([O-])cc1)C(=O)O (stereo unspecified)"
category = "label 0"

[[record]]
molecule = "Cc1ccc(SC(=O)NC(CCC(=O)O)C(=O)O)cc1 (stereo unspecified)"
category = "label 1"

